In this section we review reported t½ values for a set of binders.
Biological target: T1, mfNPR1-mFc:hBNP complex (monkey; human, UniProt P16860 103-134)
T1 construct: Receptor-Fc pre-complexed with 10-fold hBNP
Experiment: SPR Biacore, mAb captured by anti-human Fc, 37C

mAb22035 (antibody, human IgG4, V domains shown) VH: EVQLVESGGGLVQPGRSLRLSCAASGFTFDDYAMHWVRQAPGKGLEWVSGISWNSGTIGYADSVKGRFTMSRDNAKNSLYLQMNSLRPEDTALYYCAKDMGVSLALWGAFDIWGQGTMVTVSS VL: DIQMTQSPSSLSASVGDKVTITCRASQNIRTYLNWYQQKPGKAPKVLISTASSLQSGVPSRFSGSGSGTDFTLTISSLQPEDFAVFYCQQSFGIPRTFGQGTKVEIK = 2.03 h

Next binder, t½ to be filled in.
Documented t½ of mAb22809 (antibody, human IgG4, V domains shown) VH: QLQLRESGPGLVKPSETLSLTCTVSGGSINDNSFFWDWIRQTPGRGLEWIGNIFFDGNTYYTPSLKSRVIISVDMSQNQFSLRLTSVTAADTALYYCARHKRSMTAWGFFDYWGQGTLVTVSS VL: DIQMTQSPSSLSASVGDRVTITCRASKRINTYLNWYQQKPGKAPKVLIYSASNLQSGVPSRFSGSGSGTDFTLTINSLQPEDFATYFCQQSFSAPPITFGQGTRLEIK : 0.842 h
